System: HCT-15 colon
protocol_text: NCI-60 one-dose screen, 48 h (100 = growth as untreated, 0 = no growth, -100 = all killed)
condition_label: 10 µM unless noted
This is part of a sample that, as a whole, favours compounds with a hit. Of some 83,000 tested, about 20% had one in any assay. The source made the active and inactive calls. Rule for the calls: active = growth percent below 10; inactive = the rest.
measurement_name: growth

Completed entries (count: 6):
{"compound": "CC(C)(C)OC(=O)Nc1ccc2c(c1)C(NC(=O)Nc1cccc(C#N)c1)CC(C)(C)O2 (stereo not drawn)", "measurement_name": "growth", "result": "34.2% (inactive)"}
{"compound": "O=C(CSc1nnc(-c2ccc(NC(=O)c3cccnc3)cc2)o1)N[C@@H](Cc1ccc(O)cc1)C(=O)O", "measurement_name": "growth", "result": "113% (inactive)"}
{"compound": "COc1cc2c(cc1-c1c(C)noc1C)ncc1nc(C3CCC(F)(F)CC3)n(C3CCC(OC(F)F)CC3)c12 (stereo not drawn)", "measurement_name": "growth", "result": "36.1% (inactive)"}
{"compound": "COc1ccc(-c2cc(-c3cc(OC)c(OC)c(OC)c3)c(C#N)c(N3CCOCC3)n2)cc1O", "measurement_name": "growth", "result": "23.5% (inactive)"}
{"compound": "COc1ccc(C(=O)Nn2c(NCC(=O)N3c4ccccc4Sc4ccccc43)nnc2-c2ccc(O)cc2)cc1", "measurement_name": "growth", "result": "96.9% (inactive)"}
{"compound": "CCN1C(=O)N(CC)C2Nn3c(s/c(=C4\\C(=O)N(C)c5ccccc54)c3=O)=NC21 (stereo not drawn)", "measurement_name": "growth", "result": "29.7% (inactive)"}

# map each compound to its growth
1. O=C(c1ccccc1)c1c(/C=C/c2ccccc2)nc2ccccc2c1/C=C/c1ccc(Br)cc1
2. Cc1cc[c-]cc1.Fc1c[c-]c(-c2ccccn2)c(F)c1.[Pt+2].c1ccc(P(C[PH+](c2ccccc2)c2ccccc2)c2ccccc2)cc1

Found:
1. 108% (inactive)
2. 47% (inactive)

###

System: KM12 colon
protocol_text: NCI-60 one-dose screen, 48 h (100 = growth as untreated, 0 = no growth, -100 = all killed)
condition_label: 10 µM unless noted
About 83,000 compounds went through this panel and 20% of them were active in at least one assay; those are over-represented in the sample as a whole.
Give true when the value for growth is at least 80%. Give false when it is less.

For orientation, consider the following solved cases.
{"compound": "COc1cc2c(cc1-c1c(C)noc1C)ncc1nc(C3CCCCC3)n(C3CCC(OC(F)F)CC3)c12 (stereo not given)", "class": "false"}
{"compound": "O=c1oc2ccccc2c(Cl)c1Cl", "class": "true"}
{"compound": "COc1cc(C(=O)c2cc(C)c3[nH]c4ccc(Cl)cc4c3c2C)cc(OC)c1OC", "class": "false"}
{"compound": "Cc1c2c(c(C)c3c1oc1cc(O)ccc13)C(=O)N(CCN1CCCCC1)C2=O", "class": "true"}

Moving on to the next compound.
Lookup: Decide: growth of `O=C(/C=C/c1ccc(Cl)nc1)c1ccc(Cl)cc1Cl` >= 80%?
Found: false

###

System: RPMI-8226 leukemia
protocol_text: NCI-60 one-dose screen, 48 h (100 = growth as untreated, 0 = no growth, -100 = all killed)
condition_label: 10 µM unless noted
Compounds without any hit were thinned out: in the full panel of roughly 83,000, 20% have a hit.
measurement_name: growth (%)
Numbers only, in %.

{"compound": "COC(=O)[C@]12CC[C@@H](C)[C@H](C)[C@@H]1C1=CC[C@@H]3[C@@]4(C)C(C=O)=C[C@@](C)(COC(C)=O)C4=CC[C@@]3(C)[C@]1(C)CC2", "measurement_name": "growth", "quantitative_result": -9.49}
{"compound": "Cc1cc(NCCCCNc2ccnc3cc(Cl)ccc23)nc(Nc2ccc(C(=O)N3CCCC3)cc2)n1", "measurement_name": "growth", "quantitative_result": 2.17}
{"compound": "C=C1C(=O)O[C@H]2[C@H]1CC/C(CNC(=O)/C=C/c1ccc(Cl)cc1Cl)=C\\CC[C@@]1(C)O[C@@H]21", "measurement_name": "growth", "quantitative_result": -33.1}

# map each compound to its growth
1. CN1CCN(CC(=O)Nc2nc(-c3cccc(NS(=O)(=O)c4cccc5c(N(C)C)cccc45)c3)cs2)CC1
2. Cc1ccc(Nc2ccc(Nc3ccc(C)cc3)c3c2C(=O)c2cccc(O)c2C3=O)cc1
3. Cc1ccc(C(=O)CSc2nc(-c3ccc(Br)cc3)c(C#N)c(=O)[nH]2)cc1

Found:
1: 24.2; 2: 88.7; 3: 101

# map each compound to its growth
1. COCCN(C(=O)c1ccc(F)cc1F)c1c(N)n(Cc2ccccc2)c(=O)[nH]c1=O
2. CC/C=C\C/C=C\C[C@H](O)C/C=C1/C(=O)C=C[C@@H]1C/C=C\CCCC(=O)O
3. O=[N+]([O-])c1ccc(N2c3ccncc3Sc3ccncc32)cc1
4. O=C1CCC2=C3C4CCCCC4C(=O)C4CCCC(OC2C1)C34 (stereo not drawn)
5. N#CC1=C(NC=O)Oc2c(ccc3ccccc23)C1c1ccccc1 (stereo not drawn)
6. COc1cc(C2CC(=O)Nc3c2c(C)nn3-c2nc3ccccc3[nH]2)cc2c1OCC(=O)N2 (stereo not drawn)
7. COc1ccc2c(c1)C(=O)/C(=C/c1ccc(OCC(=O)Nc3nccs3)cc1)O2
8. Cc1ccc(NCCN(C)C)c2c(=O)c3ccccc3sc12

Found:
1: 112; 2: 3.88; 3: 93.5; 4: -4.93; 5: 19.1; 6: 74.1; 7: -53.8; 8: -23.4

# map each compound to its growth
1. O=C(O)C1CCC(=O)N1C(=O)OCc1ccccc1 (stereo not drawn)
2. O=C1NC(=Nc2ccc(Cl)cc2)S/C1=C\c1cn(-c2ccccc2)nc1-c1ccccc1
3. COC(=O)[C@]12CC[C@@H](C)[C@H](C)[C@@H]1C1=CC[C@@H]3[C@@]4(C)C(C=O)=C[C@@](C)(COS(C)(=O)=O)C4[C@H](O)C[C@@]3(C)[C@]1(C)CC2 (stereo partly drawn)
4. CCOC(=O)/C=C/c1cc2cc(-c3csc4ccccc34)ccc2[nH]1

Found:
[88.8, 83.3, -10.7, 47.4]

###

Tested on: SF-268 CNS
protocol_text: NCI-60 one-dose screen, 48 h (100 = growth as untreated, 0 = no growth, -100 = all killed)
condition_label: 10 µM unless noted
The panel holds about 83,000 compounds, 20% with a hit somewhere; the sample as a whole holds those more often.
Quick rule for you: growth under 90% gets satisfied, anything else gets not satisfied.

For orientation, consider the following solved cases.
{"compound": "CC(=O)N1C(=S)NC(=O)C1Cn1c(-c2ccccc2)nc2ccccc21 (centres undefined)", "class": "not satisfied"}
{"compound": "O=C(CCc1nnc(CN(c2ccccc2)c2ccccc2)o1)c1nc2ccccc2[nH]1", "class": "not satisfied"}
{"compound": "Cc1occc1-c1n[nH]c(=S)n1N1C(=O)CSC1=S", "class": "not satisfied"}

Lookup: Consider COC(=O)c1ccc(C2Nc3ccc(S(=O)(=O)Nc4ccc(C)c(C)c4)cc3C3OCCC23)cc1 (centres undefined) . Does its growth lie strictly below 90%?
Found: satisfied

Lookup: Another: `COc1cccc(-c2nc3sccn3c2-c2ccnc(NCCNS(=O)(=O)c3ccc(C(F)(F)F)cc3)c2)c1`
Found: satisfied

Lookup: Another: `COc1cc(-c2nn(-c3ccccc3)cc2-c2ccnc(NCCNS(=O)(=O)c3ccc(Cl)cc3)n2)ccc1Cl`
Found: satisfied

Lookup: Another: `Cc1ccc(/C=C/c2c(C(=O)/C=C/c3ccc(C(F)(F)F)cc3)c(C)nc3ccccc23)cc1`
Found: satisfied

Lookup: Another: `COc1ccc(-c2cc(-c3ccc(Nc4nc(Nc5ccc(Cl)cc5)nc(Nc5ccc(Cl)cc5)n4)cc3)nc(N)c2C#N)cc1`
Found: satisfied

Lookup: Another: CCCCCCCCCOc1c(OC)cc(C2CC(=O)Nc3c2c(C)nn3-c2nc3ccccc3[nH]2)cc1OC (centres undefined)
Found: satisfied

###

Tested on: MCF7 breast
protocol_text: NCI-60 one-dose screen, 48 h (100 = growth as untreated, 0 = no growth, -100 = all killed)
condition_label: 10 µM unless noted
Compounds without any hit were thinned out: in the full panel of roughly 83,000, 20% have a hit.
measurement_name: growth (%)
Numbers only, in %.

{"molecule": "CCOC(=O)c1csc(NC(=O)COc2cccc(/C=C3\\Oc4cc(OC)ccc4C3=O)c2)n1", "growth (%)": 81.1}
{"molecule": "Cc1c2c(c(C)c3c1oc1cc(O)ccc13)C(=O)N(CCN1CCCCC1)C2=O", "growth (%)": 90.3}
{"molecule": "O=C(Nc1ccc(Cl)cc1)Nc1ccc(Cl)c(C(F)(F)F)c1", "growth (%)": 9.91}

# map each molecule to its growth
1. Cc1ccc(NCCN(C)C)c2c(=O)c3ccccc3sc12
2. Cc1ccc(S(=O)(=O)N/N=C\c2cc(Cl)ccc2O)cc1
3. COc1ccc(NC(=O)c2nc(-c3cc(OC)c(OC)c(OC)c3)n(-c3cccc4ccccc34)n2)cc1OC
4. CCN1C(=O)N(CC)C2Nn3c(s/c(=C\c4cccc([N+](=O)[O-])c4)c3=O)=NC21 (stereo unspecified)
5. NS(=O)(=O)c1cnccc1Sc1ccncc1S(N)(=O)=O

Found:
[0.259, 82.6, 26.2, 35, 88.9]

# map each molecule to its growth
1. CCN1CCN(c2cc(C)nc(NCc3cc(Nc4ccnc5cc(Cl)ccc45)ccc3F)n2)CC1
2. O=C(O)C1CCC(=O)N1C(=O)OCc1ccccc1 (stereo unspecified)
3. COc1ccc(CNC(=O)C(O)C(Cc2ccccc2)NC(=O)c2[nH]c3ccccc3c(=O)c2C)cc1OC (stereo unspecified)

Found:
1: 6.99; 2: 91.6; 3: 99.7

Source: PubChem BioAssay (NCI)
